# tested.system: HiBit-BRG1 fusion protein (Homo sapiens)
# Construct: expressed in transfected cells
# assay.remarks: HiBiT-BRG1 cell-based degradation assay (Nano-Glo HiBiT Lytic Detection, 24 h)
# reported.conditions: stable HeLa cell line expressing HiBit-BRG1 and LgBit, read-out: BRG1 HiBit Degradation Maximum (%)
Entries and their measured Dmax follow.
observation.type: Dmax

>>> recorded_result("Cc1ncsc1-c1ccc([C@H](C)NC(=O)[C@@H]2C[C@@H](O)CN2C(=O)[C@@H](c2cc(-c3cnc(NC45CC(c6sc7nnc(-c8ccccc8O)cc7c6C)(C4)C5)nc3)no2)C(C)C)cc1")
"> 75%"
>>> recorded_result("Cc1ncsc1-c1ccc([C@H](C)NC(=O)[C@@H]2C[C@@H](O)CN2C(=O)[C@@H](c2cc(-c3cnc(N4C[C@H]5C[C@@H]4C[C@@H]5c4cc5cc(-c6ccccc6O)nnc5s4)nc3)no2)C(C)C)cc1")
"< 50%"
>>> recorded_result("Cc1ncsc1-c1ccc([C@H](C)NC(=O)[C@@H]2C[C@@H](O)CN2C(=O)[C@@H](c2cc(N3CCN(c4ncc(-c5sc6nnc(-c7ccccc7O)cc6c5C)cn4)CC3)no2)C(C)C)cc1 (single isomer, unassigned)")
"< 50%"
>>> recorded_result("Cc1ncsc1-c1ccc([C@H](C)NC(=O)[C@@H]2C[C@@H](O)CN2C(=O)[C@@H](c2cc(-c3ccnc(N4CCC(c5sc6nnc(-c7ccccc7O)cc6c5C)CC4)n3)no2)C(C)C)cc1")
"> 75%"
>>> recorded_result("Cc1ncsc1-c1ccc([C@H](C)NC(=O)[C@@H]2C[C@@H](O)CN2C(=O)[C@@H](c2cc(-c3cnc(N4CCC(c5sc6nnc(-c7ccccc7O)cc6c5C)[C@@H](C)C4)nc3)no2)C(C)C)cc1 (stereo in doubt)")
"< 50%"
>>> recorded_result("Cc1ncsc1-c1ccc([C@H](C)NC(=O)[C@@H]2C[C@@H](O)CN2C(=O)[C@@H](c2cc(N3CCC(c4cnc(N5CCC(c6sc7nnc(-c8ccccc8O)cc7c6C)CC5)nc4)CC3)no2)C(C)C)cc1 (single isomer, unassigned)")
"> 50%"
>>> recorded_result("COc1nc(N2CCC(c3sc4nnc(-c5ccccc5O)cc4c3C)CC2)ccc1-c1cc([C@H](C(=O)N2C[C@H](O)C[C@H]2C(=O)N[C@@H](C)c2ccc(-c3scnc3C)cc2)C(C)C)on1")
"< 50%"
>>> recorded_result("Cc1nc(N2CCC(c3sc4nnc(-c5ccccc5O)cc4c3C)CC2)ccc1-c1noc([C@H](C(=O)N2C[C@H](O)C[C@H]2C(=O)N[C@@H](C)c2ccc(-c3scnc3C)cc2)C(C)C)c1C")
"> 75%"
>>> recorded_result("COc1cc(-c2cc([C@H](C(=O)N3C[C@H](O)C[C@H]3C(=O)N[C@@H](C)c3ccc(-c4scnc4C)cc3)C(C)C)on2)cnc1N1CCC(c2sc3nnc(-c4ccccc4O)cc3c2C)CC1")
"< 50%"

###

# tested.system: HiBit-BRG1 fusion protein (Homo sapiens)
# Construct: expressed in transfected cells
# assay.remarks: HiBiT-BRG1 cell-based degradation assay (Nano-Glo HiBiT Lytic Detection, 24 h)
# reported.conditions: stable HeLa cell line expressing HiBit-BRG1 and LgBit, read-out: BRMG1 HiBit Degradation IC50
Entries and their measured DC50 follow.
observation.type: DC50

>>> recorded_result("Cc1ncsc1-c1ccc([C@H](C)NC(=O)[C@@H]2C[C@@H](O)CN2C(=O)[C@@H](c2cc(-c3cnc(N4C[C@H]5C[C@@H]4C[C@@H]5c4cc5cc(-c6ccccc6O)nnc5s4)nc3)no2)C(C)C)cc1")
"> 1 µM"
>>> recorded_result("Cc1ncsc1-c1ccc([C@H](C)NC(=O)[C@@H]2C[C@@H](O)CN2C(=O)[C@@H](c2cc(-c3ccc(N4CCC(c5sc6nnc(-c7ccccc7O)cc6c5C)CC4)nn3)no2)C(C)C)cc1")
"> 1 µM"
>>> recorded_result("Cc1ncsc1-c1ccc([C@H](C)NC(=O)[C@@H]2C[C@@H](O)CN2C(=O)[C@@H](c2cc(N3CC4(CCC(c5cc6cc(-c7ccccc7O)nnc6s5)CC4)C3)no2)C(C)C)cc1")
"> 0.01 µM"

###

# tested.system: HiBit-BRM fusion protein (Homo sapiens)
# Construct: expressed in transfected cells
# Sequence (P51531 whole entry, the tested form may be a part): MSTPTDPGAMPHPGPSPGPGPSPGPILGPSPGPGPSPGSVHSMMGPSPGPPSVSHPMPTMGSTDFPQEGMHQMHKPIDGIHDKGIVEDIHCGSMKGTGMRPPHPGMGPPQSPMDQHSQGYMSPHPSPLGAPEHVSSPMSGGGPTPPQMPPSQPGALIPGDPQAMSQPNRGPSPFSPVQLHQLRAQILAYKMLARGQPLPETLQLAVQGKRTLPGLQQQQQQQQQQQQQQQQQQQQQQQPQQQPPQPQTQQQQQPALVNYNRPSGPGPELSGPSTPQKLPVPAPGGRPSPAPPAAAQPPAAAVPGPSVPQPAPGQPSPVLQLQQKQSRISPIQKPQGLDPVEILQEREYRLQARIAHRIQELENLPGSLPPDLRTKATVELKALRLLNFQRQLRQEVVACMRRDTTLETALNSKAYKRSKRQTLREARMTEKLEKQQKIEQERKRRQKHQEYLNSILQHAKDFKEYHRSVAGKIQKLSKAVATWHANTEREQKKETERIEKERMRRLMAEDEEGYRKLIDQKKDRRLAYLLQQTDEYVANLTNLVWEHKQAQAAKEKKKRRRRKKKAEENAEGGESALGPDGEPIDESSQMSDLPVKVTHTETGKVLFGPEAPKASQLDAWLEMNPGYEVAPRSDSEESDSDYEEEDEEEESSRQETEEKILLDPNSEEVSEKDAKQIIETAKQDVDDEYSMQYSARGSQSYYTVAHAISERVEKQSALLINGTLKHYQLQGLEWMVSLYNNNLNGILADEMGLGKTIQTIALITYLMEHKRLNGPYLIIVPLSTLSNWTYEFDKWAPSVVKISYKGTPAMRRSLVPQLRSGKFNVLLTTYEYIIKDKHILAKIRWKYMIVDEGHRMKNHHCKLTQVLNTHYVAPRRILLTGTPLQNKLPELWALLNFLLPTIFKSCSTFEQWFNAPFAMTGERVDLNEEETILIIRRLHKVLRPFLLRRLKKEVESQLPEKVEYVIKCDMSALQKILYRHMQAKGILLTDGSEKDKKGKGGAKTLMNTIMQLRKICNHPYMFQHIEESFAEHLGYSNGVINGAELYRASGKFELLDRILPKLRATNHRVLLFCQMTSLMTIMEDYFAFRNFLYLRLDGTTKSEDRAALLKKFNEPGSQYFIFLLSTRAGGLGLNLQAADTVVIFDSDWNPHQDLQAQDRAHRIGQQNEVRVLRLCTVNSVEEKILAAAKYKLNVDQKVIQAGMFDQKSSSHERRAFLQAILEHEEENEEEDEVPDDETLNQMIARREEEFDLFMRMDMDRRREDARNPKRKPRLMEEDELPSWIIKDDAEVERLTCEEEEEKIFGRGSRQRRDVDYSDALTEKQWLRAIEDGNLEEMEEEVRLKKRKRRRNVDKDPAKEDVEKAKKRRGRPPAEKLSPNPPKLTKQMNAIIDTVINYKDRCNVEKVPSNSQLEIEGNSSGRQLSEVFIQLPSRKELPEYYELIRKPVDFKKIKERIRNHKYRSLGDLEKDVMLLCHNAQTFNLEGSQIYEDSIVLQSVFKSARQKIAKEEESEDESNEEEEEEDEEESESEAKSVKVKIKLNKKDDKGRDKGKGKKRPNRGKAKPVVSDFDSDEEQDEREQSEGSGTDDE
# assay.remarks: HiBiT-BRM cell-based degradation assay (Nano-Glo HiBiT Lytic Detection, 24 h)
# reported.conditions: stable HeLa cell line expressing HiBiT-BRM, read-out: BRM HiBit Degradation IC50
Entries and their measured DC50 follow.
observation.type: DC50

>>> recorded_result("Cc1ncsc1-c1ccc([C@H](C)NC(=O)[C@@H]2C[C@@H](O)CN2C(=O)[C@@H](c2cc(-c3ccc(N4CC(c5sc6nnc(-c7ccccc7O)cc6c5C)C4)nc3)no2)C(C)C)cc1 [Compound 49]")
"> 10 nM"
>>> recorded_result("Cc1ncsc1-c1ccc([C@H](C)NC(=O)[C@@H]2C[C@@H](O)CN2C(=O)[C@@H](c2cc(N3CCC4(CC[C@H](c5sc6nnc(-c7ccccc7O)cc6c5C)C4)CC3)no2)C(C)C)cc1 [Compound 81]")
"> 10 nM"
>>> recorded_result("Cc1ncsc1-c1ccc([C@H](C)NC(=O)[C@@H]2C[C@@H](O)CN2C(=O)[C@@H](c2cc(N3CCN(c4ncc(-c5sc6nnc(-c7ccccc7O)cc6c5C)cn4)CC3)no2)C(C)C)cc1 (single isomer, unassigned) [Compound 31]")
"> 10 nM"
>>> recorded_result("Cc1ncsc1-c1ccc([C@H](C)NC(=O)[C@@H]2C[C@@H](O)CN2C(=O)[C@@H](c2cc(-c3cnc(N4CC[C@@H](c5sc6nnc(-c7ccccc7O)cc6c5C)C[C@H]4C)nc3)no2)C(C)C)cc1 [Compound 30]")
"< 10 nM"
>>> recorded_result("Cc1ncsc1-c1ccc([C@H](C)NC(=O)[C@@H]2C[C@@H](O)CN2C(=O)[C@@H](c2cc(-c3cnc(N4CC[C@H](c5sc6nnc(-c7ccccc7O)cc6c5C)C[C@@H]4C)nc3)no2)C(C)C)cc1 [Compound 27]")
"< 10 nM"
>>> recorded_result("Cc1ncsc1-c1ccc([C@H](C)NC(=O)[C@@H]2C[C@@H](O)CN2C(=O)[C@@H](c2cc(-c3cnc(CN4CCC(c5cc6cc(-c7ccccc7O)nnc6s5)CC4)nc3)no2)C(C)C)cc1 (single isomer, unassigned) [Compound 99]")
"> 10 nM"
>>> recorded_result("Cc1ncsc1-c1ccc([C@H](C)NC(=O)[C@@H]2C[C@@H](O)CN2C(=O)C(c2cc(Oc3nccc(N4CCC(c5sc6nnc(-c7ccccc7O)cc6c5C)CC4)n3)no2)C(C)C)cc1 (single isomer, unassigned) [Compound 61]")
"> 1000 nM"
>>> recorded_result("Cc1ncsc1-c1ccc([C@H](C)NC(=O)[C@@H]2C[C@@H](O)CN2C(=O)[C@@H](c2cc(-c3cnc(N4CC5(CC(c6cc7nnc(-c8ccccc8O)cc7s6)C5)C4)nc3)no2)C(C)C)cc1 [Compound 17]")
"< 10 nM"
>>> recorded_result("Cc1ncsc1-c1ccc([C@H](C)NC(=O)[C@@H]2C[C@@H](O)CN2C(=O)[C@@H](c2cc(-c3ccc(N4CCC(c5cc6cc(-c7ccccc7O)nnc6s5)CC4)nc3)no2)C(C)C)cc1 [Compound 39]")
"> 10 nM"

###

# tested.system: HiBit-BRG1 fusion protein (Homo sapiens, UniProt P51532)
# Construct: expressed in transfected cells
# Sequence (P51532 whole entry, the tested form may be a part): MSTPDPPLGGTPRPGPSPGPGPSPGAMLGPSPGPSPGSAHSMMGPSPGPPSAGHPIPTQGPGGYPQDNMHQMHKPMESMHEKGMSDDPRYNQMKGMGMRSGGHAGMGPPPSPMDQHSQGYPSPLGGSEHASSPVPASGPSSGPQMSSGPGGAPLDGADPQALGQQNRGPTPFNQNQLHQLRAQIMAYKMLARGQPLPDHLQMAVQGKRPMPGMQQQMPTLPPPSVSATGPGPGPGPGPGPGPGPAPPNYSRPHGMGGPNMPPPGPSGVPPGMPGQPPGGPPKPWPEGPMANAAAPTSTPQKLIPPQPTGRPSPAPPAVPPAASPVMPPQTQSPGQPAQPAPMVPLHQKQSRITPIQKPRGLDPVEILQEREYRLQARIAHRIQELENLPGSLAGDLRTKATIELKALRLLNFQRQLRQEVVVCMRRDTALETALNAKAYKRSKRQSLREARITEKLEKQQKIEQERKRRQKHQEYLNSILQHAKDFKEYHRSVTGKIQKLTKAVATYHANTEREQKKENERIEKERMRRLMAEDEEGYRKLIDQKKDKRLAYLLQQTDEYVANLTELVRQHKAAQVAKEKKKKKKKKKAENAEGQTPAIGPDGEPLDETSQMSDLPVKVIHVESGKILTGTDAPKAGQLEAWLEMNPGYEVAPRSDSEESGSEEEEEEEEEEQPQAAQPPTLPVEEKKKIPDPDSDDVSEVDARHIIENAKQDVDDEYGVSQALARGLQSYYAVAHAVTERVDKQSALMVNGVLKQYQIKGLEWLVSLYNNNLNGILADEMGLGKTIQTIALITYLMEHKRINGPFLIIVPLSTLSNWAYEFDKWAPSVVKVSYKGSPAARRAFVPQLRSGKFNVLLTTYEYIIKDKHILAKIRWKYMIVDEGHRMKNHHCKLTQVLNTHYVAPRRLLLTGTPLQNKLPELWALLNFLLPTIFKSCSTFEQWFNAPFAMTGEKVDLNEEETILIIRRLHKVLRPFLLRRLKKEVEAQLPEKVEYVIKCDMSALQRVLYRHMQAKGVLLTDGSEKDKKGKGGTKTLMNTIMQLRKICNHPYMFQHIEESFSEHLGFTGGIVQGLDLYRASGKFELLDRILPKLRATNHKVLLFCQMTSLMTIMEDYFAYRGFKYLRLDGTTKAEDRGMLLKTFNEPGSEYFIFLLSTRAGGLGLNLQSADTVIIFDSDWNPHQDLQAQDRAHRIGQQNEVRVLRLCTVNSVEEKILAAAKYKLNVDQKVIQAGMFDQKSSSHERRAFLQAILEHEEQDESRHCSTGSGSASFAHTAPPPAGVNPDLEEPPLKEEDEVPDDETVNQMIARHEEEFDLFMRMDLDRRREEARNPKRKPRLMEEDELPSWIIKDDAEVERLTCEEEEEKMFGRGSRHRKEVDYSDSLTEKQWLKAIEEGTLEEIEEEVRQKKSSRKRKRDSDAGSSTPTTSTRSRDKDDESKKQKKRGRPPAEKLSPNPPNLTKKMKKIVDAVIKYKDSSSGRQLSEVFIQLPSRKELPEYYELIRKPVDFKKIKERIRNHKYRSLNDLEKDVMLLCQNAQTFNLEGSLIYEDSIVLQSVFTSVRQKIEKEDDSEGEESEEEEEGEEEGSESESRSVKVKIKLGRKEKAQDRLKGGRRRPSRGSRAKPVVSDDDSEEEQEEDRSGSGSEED
# assay.remarks: HiBiT-BRG1 cell-based degradation assay (Nano-Glo HiBiT Lytic Detection, 24 h)
# reported.conditions: stable HeLa cell line expressing HiBit-BRG1 and LgBit, read-out: BRMG1 HiBit Degradation IC50
observation.type: DC50

>>> recorded_result("Cc1ncsc1-c1ccc([C@H](C)NC(=O)[C@@H]2C[C@@H](O)CN2C(=O)[C@@H](c2cc(-c3ccnc(N4CC[C@@H](c5sc6nnc(-c7ccccc7O)cc6c5C)C4)n3)no2)C(C)C)cc1 [Compound 7]")
"> 1000 nM"
>>> recorded_result("Cc1ncsc1-c1ccc([C@H](C)NC(=O)[C@@H]2C[C@@H](O)CN2C(=O)[C@@H](c2cc(-c3cnc(N4CCC(c5sc6nnc(-c7ccccc7O)cc6c5C)CC4)cn3)no2)C(C)C)cc1 [Compound 28]")
"> 1000 nM"
>>> recorded_result("Cc1ncsc1-c1ccc([C@H](C)NC(=O)[C@@H]2C[C@@H](O)CN2C(=O)[C@@H](c2cc(-c3ccc(N4CCC(c5cc6cc(-c7ccccc7O)nnc6s5)CC4)nc3)no2)C(C)C)cc1 [Compound 39]")
"> 1000 nM"
>>> recorded_result("Cc1ncsc1-c1ccc([C@H](C)NC(=O)[C@@H]2C[C@@H](O)CN2C(=O)[C@@H](c2cc(-c3cnc(N4CCN(c5cc6nnc(-c7ccccc7O)cc6s5)CC4)nc3)no2)C(C)C)cc1 [Compound 9]")
"> 10 nM"
>>> recorded_result("COc1nc(N2CCC(c3sc4nnc(-c5ccccc5O)cc4c3C)CC2)ccc1-c1cc([C@H](C(=O)N2C[C@H](O)C[C@H]2C(=O)N[C@@H](C)c2ccc(-c3scnc3C)cc2)C(C)C)on1 [Compound 20]")
"> 1000 nM"
>>> recorded_result("Cc1ncsc1-c1ccc([C@H](C)NC(=O)[C@@H]2C[C@@H](O)CN2C(=O)[C@@H](c2cc(N3CC(c4sc5nnc(-c6ccccc6O)cc5c4C)C3)no2)C(C)C)cc1 [Compound 19]")
"> 1000 nM"
>>> recorded_result("Cc1cc(-c2cc([C@H](C(=O)N3C[C@H](O)C[C@H]3C(=O)N[C@@H](C)c3ccc(-c4scnc4C)cc3)C(C)C)on2)ccc1N1CCC(c2sc3nnc(-c4ccccc4O)cc3c2C)CC1 (single isomer, unassigned) [Compound 3]")
"> 1000 nM"
>>> recorded_result("Cc1ncsc1-c1ccc([C@H](C)NC(=O)[C@@H]2C[C@@H](O)CN2C(=O)[C@@H](c2cc(-c3cnc(N4CC[C@H](c5sc6nnc(-c7ccccc7O)cc6c5C)C[C@@H]4C)nc3)no2)C(C)C)cc1 [Compound 27]")
"> 1000 nM"
>>> recorded_result("Cc1ncsc1-c1ccc([C@H](C)NC(=O)[C@@H]2C[C@@H](O)CN2C(=O)[C@@H](c2cc(N3CC[C@H](c4sc5nnc(-c6ccccc6O)cc5c4C)C3)no2)C(C)C)cc1 [Compound 78]")
"> 10 nM"

Values from patent US20250304596A1
